assay: protein stability index of a GFP-peptide fusion (yeast GPS) (PSI 1-4); higher = more stable; sorted into four equal gates, so the index is relative within each strain; settings: ubr1∆
Outcome: condition met for protein stability index of at least 3; condition not met for anything lower.

Record excerpt, results attached:
[
  {
    "BIOPOLYMER SEQUENCE": "KDVLAQTSVTTNFNEIT [SWP82]",
    "LABEL": "condition not met"
  },
  {
    "BIOPOLYMER SEQUENCE": "TFEFINIAFDAHMSIGC [YML031W/NDC1]",
    "LABEL": "condition not met"
  },
  {
    "BIOPOLYMER SEQUENCE": "AKGCEVVVSGKLRAARA [RPS3]",
    "LABEL": "condition met"
  }
]

Ask: Check if protein stability index >= 3 (inclusive). Item: NSTGHSSNTNNNTNNNN [SWI1]
Result: condition met

Ask: Same thing, different sequence: KIIPKDISATQLPKQLW [ITC1]
Result: condition not met

Ask: Same thing, different sequence: KSLESQRYVKSVKSVKF [RPC34]
Result: condition not met

Ask: Same thing, different sequence: SSVEMLLDVVKGTEASN [YDL116W/NUP84]
Result: condition not met

Ask: Same thing, different sequence: AKIYPGRGTLFVRGDSK [RPL24A]
Result: condition not met

* * *

Would you kindly list protein stability index for each of these sequences?
test: protein stability index of a GFP-peptide fusion (yeast GPS) (PSI 1-4); higher = more stable; sorted into four equal gates, so the index is relative within each strain; settings: ubr1∆
Answers are plain numbers.

[
  {
    "BIOPOLYMER SEQUENCE": "KGSRQCRVCSSHTGLIR [RPS29A]",
    "protein stability index": 2.9
  },
  {
    "BIOPOLYMER SEQUENCE": "EKPDNSNHNNLNLNNSE [SNF2]",
    "protein stability index": 3.17
  },
  {
    "BIOPOLYMER SEQUENCE": "DKINKYSLIRETNGYDP [SNF5]",
    "protein stability index": 1.23
  },
  {
    "BIOPOLYMER SEQUENCE": "SKEQIHGSIIILGMLSL [YCS4]",
    "protein stability index": 2.82
  },
  {
    "BIOPOLYMER SEQUENCE": "DTFLPPPPPPPSNFEIN [PRP8]",
    "protein stability index": 2.33
  },
  {
    "BIOPOLYMER SEQUENCE": "MKYTQYPNSSKLKRNSD [LIN1]",
    "protein stability index": 3.14
  }
]

Take each entry in turn and give its protein stability index.
1. GTFGGDGMYSESKLSLE [FAS2]
2. RRILAAAAAAAAAVSGN [SSN3]
3. SHVNKYGLIRGLKFASF [PRP8]
4. LNSYHIKNGRIYFTVPN [RGR1]
5. RQYVGQLAPSSVDPQSS [DIS3]
6. AGFTHKLSNWLFGWNDL [YDL088C/ASM4]
7. IVHHPYQSLKQIVQVLK [SSN8]

Result:
1: 2.87; 2: 1.59; 3: 1.34; 4: 2.33; 5: 2.62; 6: 2.93; 7: 1.25

Take each entry in turn and give its protein stability index.
1. MVKGLLKSFTESTAGSA [ECM29]
2. DKGAVGPNNFIWPAEDA [MED4]

Result:
3.34
3.23

* * *

assay: protein stability index of a GFP-peptide fusion (yeast GPS) (PSI 1-4); higher = more stable; sorted into four equal gates, so the index is relative within each strain; conditions: san1∆
Would you kindly list protein stability index for each of these sequences?
Numbers only.

Take each entry in turn and give its protein stability index.
1. TSNGLKKNPNWLEEYHP [FAS1]
2. TEENIKGETNSEISIID [RRP45]
3. TLIDLVKHSPGAIKPFT [ECM29]
4. KTMIKTIEKDKMKIQET [SMC2]

Result:
[3.48, 3.3, 1.95, 1.64]

Take each entry in turn and give its protein stability index.
1. SQLLLERLMISSDAFEV [RET1]
2. RENVFFQSQQRRKDTSM [RPB9]
3. GITHFRAGMTHEDEKLI [PRP8]

Result:
1.98
3.34
3.1

Take each entry in turn and give its protein stability index.
1. VVFTRLVQRCWQWGNDR [CSN12]
2. VGKLFRVGVVSILEAGD [RPL30]
3. LLSLNSVRSLQKRIENG [SRP68]
4. SKAFKESSDFGAIILTK [SRP54]
5. LSAEYLVILKPDLNIDR [SIN4]
6. DADTEDPHSASLINSHL [RPC82]

Result:
1.58
1.58
2.1
1.56
2.97
2.97

Take each entry in turn and give its protein stability index.
1. EKTMMTFGKPEEEDSIL [YCS4]
2. CSPKLPVEKVQRIAKND [DLS1]

Result:
[3.35, 3.17]

* * *

assay: protein stability index of a GFP-peptide fusion (yeast GPS) (PSI 1-4); higher = more stable; sorted into four equal gates, so the index is relative within each strain; conditions: pdr5∆
Outcome: Y for protein stability index of at least 2; N for anything lower.

[
  {
    "BIOPOLYMER SEQUENCE": "DSEGSIKQTSDESTIKR [ECM29]",
    "LABEL": "Y"
  }
]

Ask: Check if protein stability index >= 2 (inclusive). Item: EVEPALLLLQDYVTNPD [RPN1]
Result: N

Ask: Same thing, different sequence: ETRPAQVILPMSPNHGT [FAS2]
Result: Y

Ask: Same thing, different sequence: SVAEKEEIRSQIDHFKS [SWI3]
Result: Y

Ask: Same thing, different sequence: AAEQQSKAFKESSDFGA [SRP54]
Result: Y

Ask: Same thing, different sequence: KVLGVKDMSPILGELKR [LRP1]
Result: Y

Ask: Same thing, different sequence: YLKDNITLLTRQRELLI [GRR1]
Result: Y

Ask: Same thing, different sequence: RIATEASKLAAYNKKST [HTB1]
Result: Y

* * *

assay: protein stability index of a GFP-peptide fusion (yeast GPS) (PSI 1-4); higher = more stable; sorted into four equal gates, so the index is relative within each strain; conditions: ubr1∆
ASSAY METRIC: protein stability index
Answers are plain numbers.

Guide cases for protein stability index, answers given:
[
  {
    "BIOPOLYMER SEQUENCE": "KQRTKKEDKSEAIDGNG [SNF2]",
    "ASSAY METRIC": "protein stability index",
    "ASSAY VALUE": 3.19
  },
  {
    "BIOPOLYMER SEQUENCE": "DELETKAEKKVELHGKR [PRP8]",
    "ASSAY METRIC": "protein stability index",
    "ASSAY VALUE": 2.63
  },
  {
    "BIOPOLYMER SEQUENCE": "EELLQLFLNNFVSRIPI [IRR1]",
    "ASSAY METRIC": "protein stability index",
    "ASSAY VALUE": 2.7
  },
  {
    "BIOPOLYMER SEQUENCE": "WLLHNGFSTGIGDTIAD [RPO21]",
    "ASSAY METRIC": "protein stability index",
    "ASSAY VALUE": 3.06
  },
  {
    "BIOPOLYMER SEQUENCE": "WSFEEVEVKDASLVDYV [RPS5]",
    "ASSAY METRIC": "protein stability index",
    "ASSAY VALUE": 1.17
  },
  {
    "BIOPOLYMER SEQUENCE": "DDRGPVLESIVARTFWA [BRR2]",
    "ASSAY METRIC": "protein stability index",
    "ASSAY VALUE": 2.85
  }
]

Take each entry in turn and give its protein stability index.
1. PIAAPKKPRKPRQTKKA [PGD1]
2. DLFTHLWNQWLKLNTSL [SRP68]
3. HTDVSSSLEARYFFYLS [RPN3]
4. NAVTAAAANNNIKPVEQ [GAL11]
5. ELGEFFVNGVATSFSRK [FAS2]
6. VVSTDLESIQKTKEAVA [RPL4A]

Result:
3.09
1.83
2.85
2.84
2.69
2.82

Take each entry in turn and give its protein stability index.
1. KSNGSSDDDNIGQSEEL [ISW2]
2. EEDDEGELEQAQAWINL [RPN7]
3. FKVQIIELLSYLVEAPW [YML103C/NUP188]

Result:
3.42
3.26
2.26

* * *

experiment: protein stability index of a GFP-peptide fusion (yeast GPS) (PSI 1-4); higher = more stable; sorted into four equal gates, so the index is relative within each strain; details: san1∆
Outcome: t for protein stability index of at least 3; f for anything lower.

Record excerpt, results attached:
[
  {
    "BIOPOLYMER SEQUENCE": "SEILIISSLMFDEEFDP [IRR1]",
    "LABEL": "f"
  },
  {
    "BIOPOLYMER SEQUENCE": "LFVISTEISPMAGSQFE [RRP45]",
    "LABEL": "f"
  },
  {
    "BIOPOLYMER SEQUENCE": "FIYDTEKNGGLGWDLDA [FAS2]",
    "LABEL": "t"
  },
  {
    "BIOPOLYMER SEQUENCE": "EGLNQRNQVQTENVAQA [YGR119C/NUP57]",
    "LABEL": "f"
  },
  {
    "BIOPOLYMER SEQUENCE": "TKEYLVQNLRSWETKLK [CSN9]",
    "LABEL": "t"
  },
  {
    "BIOPOLYMER SEQUENCE": "VTPNDKIPEREEKSNEV [SIR4]",
    "LABEL": "t"
  },
  {
    "BIOPOLYMER SEQUENCE": "MPGMPNMPGMPKVTPQM [SRP54]",
    "LABEL": "f"
  },
  {
    "BIOPOLYMER SEQUENCE": "KVYAQLLESYKTLSLKS [RPN7]",
    "LABEL": "f"
  },
  {
    "BIOPOLYMER SEQUENCE": "AENMLEELRGQQTEHET [SMC4]",
    "LABEL": "t"
  },
  {
    "BIOPOLYMER SEQUENCE": "NNNDNDANRNANNIVNI [GRR1]",
    "LABEL": "f"
  }
]

Ask: Check if protein stability index >= 3 (inclusive). Item: SLMDTLITPAVRNTAPN [YCG1]
Result: f

Ask: Same thing, different sequence: ETHSKKRKKEANEEPNT [ITC1]
Result: t

Ask: Same thing, different sequence: ASYSKYLIDHIKVDGAV [RPL22B]
Result: f
